# Experimental system: human somatostatin receptor subtype 2 (Homo sapiens)
# Construct: expressed in transfected cells
# Sequence (P30874 whole entry): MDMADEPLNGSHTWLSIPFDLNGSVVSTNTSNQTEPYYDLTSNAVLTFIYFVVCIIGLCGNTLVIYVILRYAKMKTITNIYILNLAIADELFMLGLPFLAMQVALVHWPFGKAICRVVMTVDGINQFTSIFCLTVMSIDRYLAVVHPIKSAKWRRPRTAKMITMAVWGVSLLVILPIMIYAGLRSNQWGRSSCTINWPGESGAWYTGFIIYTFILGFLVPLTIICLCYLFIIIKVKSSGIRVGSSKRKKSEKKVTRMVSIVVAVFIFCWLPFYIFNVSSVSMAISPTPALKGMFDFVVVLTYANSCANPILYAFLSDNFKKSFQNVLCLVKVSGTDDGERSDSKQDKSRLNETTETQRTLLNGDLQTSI
# Measurement protocol: cAMP functional assay for SSTR2 agonists
# Type: cell-based
# Measurement parameters: inhibition of cAMP activities via human SST2 receptor (SSTR2), CHO-K1 cells; read-out: EC50
Value kind: EC50

Entry smiles: Cc1cc(F)cc(-c2cnc(N(C)C)c(-c3nc4cc(F)cc(F)c4[nH]3)c2N2CCC(N)CC2)c1
Experimental system: human somatostatin receptor subtype 2 (Homo sapiens)
Result value: < 10 nM
--
Entry smiles: COc1ncc(-c2cc(C)cc(C#N)c2)c(N2CCC(N)CC2)c1-c1nc2cc(Cl)ccc2[nH]1
Experimental system: human somatostatin receptor subtype 2 (Homo sapiens)
Result value: 10 to 100 nM
--
Entry smiles: Cc1cc(F)cc(-c2cnc(O)c(-c3nc4cc(F)c(F)cc4[nH]3)c2N2CCC(N)CC2)c1
Experimental system: human somatostatin receptor subtype 2 (Homo sapiens)
Result value: 10 to 100 nM
--
Entry smiles: Cc1cc(F)cc(-c2cnc(N)c(-c3nc4cccc(C#N)c4[nH]3)c2N2CCC(N)CC2)c1
Experimental system: human somatostatin receptor subtype 2 (Homo sapiens)
Result value: < 10 nM
--
Entry smiles: Cc1cc(F)cc(-c2cnc(N)c(-c3nc4cc(F)c(F)cc4[nH]3)c2N2CCC(N)CC2)c1
Experimental system: human somatostatin receptor subtype 2 (Homo sapiens)
Result value: < 10 nM
--
Entry smiles: COc1cc(F)cc2nc(-c3c(N)ncc(-c4cc(F)cc(Cl)c4)c3N3CCC(N)CC3)[nH]c12
Experimental system: human somatostatin receptor subtype 2 (Homo sapiens)
Result value: < 10 nM
--
Entry smiles: CNc1ncc(-c2cc(C)cc(F)c2)c(N2CCC(N)CC2)c1-c1nc2cc(Cl)cc(F)c2[nH]1
Experimental system: human somatostatin receptor subtype 2 (Homo sapiens)
Result value: < 10 nM

Where do the numbers come from? From patent US11072598B2.
